target: Type I 5α-Reductase from Human Scalp (Homo sapiens); construct: Scalp punch biopsies from graft recipient sites were obtained from human hair transplant procedures; from tissue; host or cells: human scalp punch biopsies (hair transplant graft recipient sites), homogenate, 100,000×g pellet; assay: Human Type I 5α-reductase assay (conversion of [3H]-testosterone to 5α-reduced metabolites); type: biochemical; conditions: pH 7.5, 0.3 μM; 50 nM [3H]-testosterone, pH 7.5, 25°, 180 min; compared to control reaction mixtures; read-out: percent inhibition of Type I AR
Sequence (P18405 whole entry): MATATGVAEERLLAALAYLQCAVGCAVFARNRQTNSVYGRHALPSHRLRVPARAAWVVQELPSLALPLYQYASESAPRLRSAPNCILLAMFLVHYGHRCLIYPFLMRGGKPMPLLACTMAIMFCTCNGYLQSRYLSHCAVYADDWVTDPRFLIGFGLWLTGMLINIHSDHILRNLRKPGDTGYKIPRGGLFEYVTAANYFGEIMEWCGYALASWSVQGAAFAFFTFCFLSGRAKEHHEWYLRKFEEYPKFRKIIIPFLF
Measured property: inhibition at 0.3 µM (%)

Worked cases, answers included:
COc1ccc2nc(Sc3ccc4c(c3)CC[C@H]3N(C)C(=O)CC[C@]43C)sc2c1 ... 71
CN1C(=O)CC[C@]2(C)c3ccc(-c4ccc(Cl)cc4)cc3CC[C@@H]12 ... 95

(1) CN1C(=O)CC[C@]2(C)c3ccc(Sc4ncccn4)cc3CC[C@@H]12
(2) CN1C(=O)CC[C@]2(C)c3ccc(-c4cnc5ccccc5c4)cc3CC[C@@H]12
Compare inhibition at 0.3 µM: is it lower for 1 or for 2 ? Returns: label corresponding to the selected item. 1
